# assayed.system: F508delCFTR (Homo sapiens, UniProt P13569, DEL508-508)
# Construct: expressed in transfected cells; host or cells: CFBE41o- human lung-derived epithelial cells (CFBE41o-F508delCFTR-HRP), doxycycline-inducible
# Sequence (P13569 with tags, fused parts or gaps DEL508-508): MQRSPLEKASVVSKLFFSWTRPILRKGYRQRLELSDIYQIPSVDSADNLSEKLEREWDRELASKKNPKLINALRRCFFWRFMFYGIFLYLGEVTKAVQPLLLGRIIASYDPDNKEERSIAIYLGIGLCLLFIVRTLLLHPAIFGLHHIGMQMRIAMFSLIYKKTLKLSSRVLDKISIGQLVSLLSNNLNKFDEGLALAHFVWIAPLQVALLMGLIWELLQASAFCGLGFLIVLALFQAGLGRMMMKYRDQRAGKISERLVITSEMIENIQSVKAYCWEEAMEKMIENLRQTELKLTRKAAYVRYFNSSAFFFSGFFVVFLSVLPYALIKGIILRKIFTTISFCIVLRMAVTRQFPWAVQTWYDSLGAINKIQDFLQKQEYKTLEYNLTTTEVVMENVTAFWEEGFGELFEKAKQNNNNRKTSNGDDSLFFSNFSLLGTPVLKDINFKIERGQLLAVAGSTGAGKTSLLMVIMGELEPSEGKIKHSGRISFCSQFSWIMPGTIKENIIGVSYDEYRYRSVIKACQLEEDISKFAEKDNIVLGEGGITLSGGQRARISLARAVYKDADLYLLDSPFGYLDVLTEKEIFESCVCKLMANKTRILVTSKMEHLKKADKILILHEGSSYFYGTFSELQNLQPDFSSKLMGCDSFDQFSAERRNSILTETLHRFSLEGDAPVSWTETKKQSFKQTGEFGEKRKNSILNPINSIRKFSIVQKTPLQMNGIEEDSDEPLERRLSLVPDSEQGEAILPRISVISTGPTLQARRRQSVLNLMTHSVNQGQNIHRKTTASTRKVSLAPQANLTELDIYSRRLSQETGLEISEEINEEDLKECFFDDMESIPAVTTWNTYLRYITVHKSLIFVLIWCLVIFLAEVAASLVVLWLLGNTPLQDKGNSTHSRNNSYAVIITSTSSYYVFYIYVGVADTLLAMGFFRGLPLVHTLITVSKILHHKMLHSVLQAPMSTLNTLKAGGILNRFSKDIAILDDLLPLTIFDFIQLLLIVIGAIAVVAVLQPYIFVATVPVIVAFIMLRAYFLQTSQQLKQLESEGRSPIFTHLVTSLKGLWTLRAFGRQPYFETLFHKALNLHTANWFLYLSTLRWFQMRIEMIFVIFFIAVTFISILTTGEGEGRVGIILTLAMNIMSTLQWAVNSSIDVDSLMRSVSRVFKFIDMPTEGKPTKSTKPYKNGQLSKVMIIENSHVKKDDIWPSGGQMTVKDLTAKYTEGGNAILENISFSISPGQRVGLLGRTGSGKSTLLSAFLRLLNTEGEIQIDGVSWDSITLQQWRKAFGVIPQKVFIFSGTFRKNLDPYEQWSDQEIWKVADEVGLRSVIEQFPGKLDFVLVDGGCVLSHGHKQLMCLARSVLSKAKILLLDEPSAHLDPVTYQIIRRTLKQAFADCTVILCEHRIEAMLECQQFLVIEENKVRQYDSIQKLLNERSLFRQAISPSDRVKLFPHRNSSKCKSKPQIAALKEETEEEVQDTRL
# experiment.notes: Cell Surface Expression-Horse Radish Peroxidase (CSE-HRP) assay, test compound without co-corrector;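 for Emax: percent of on-plate 2 µM positive control corrector response over DMSO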
# Type: cell-based
# assay.setup: maximum at any tested concentration, normalized to positive control, without co-corrector
# Description: Cell Surface Expression-Horse Radish Peroxidase (CSE-HRP) Assay […] The % activity measured at each of the 8 test concentrations of the test compound added either without or with a co-corrector (2 μM of 3-[(2R,4R)-4-({[1-(2,2-difluoro-1,3-benzodioxol-5-yl)cyclopropyl]carbonyl}amino)-7-methoxy-3,4-dihydro-2H-chromen-2-yl]benzoic acid) was normalized to the on-plate positive control using the following formulae: […]
readout: Emax

Take a look at these entries with their results.
COCCS(=O)(=O)NC(=O)C1CCc2c(Cl)cccc21 (centres unmarked) [III-5] | < 50%
COc1ccc(C2CCC2)c2c1C(C(=O)NS(=O)(=O)c1cccc3c1NCCC3)CC2 (centres unmarked) [Example I-119] | ≥ 150%
C[C@]1(C(=O)NS(=O)(=O)c2cccc3ccccc23)CCc2c1ccc1c2OCO1 [Example I-20] | ≥ 150%
COc1cc(CC2(C(=O)NS(=O)(=O)c3cccc4ccccc34)CCc3c(Cl)cccc32)ccn1 (centres unmarked) [II-72] | 50 to 150%
COc1ccc(-c2ccc(C)cc2)c2c1CCCC2C(=O)NS(=O)(=O)c1cccc2ccccc12 (centres unmarked) [Example I-57] | ≥ 150%

Record Cc1ccccc1S(=O)(=O)NC(=O)C1CCCc2ccccc21 (centres unmarked) [II-7] / F508delCFTR (Homo sapiens, UniProt P13569, DEL508-508), Emax recorded as < 50%

O=C(NS(=O)(=O)c1cccc2ccccc12)C1(Cc2cccc(C(F)(F)F)n2)CCc2c(Cl)cccc21 (centres unmarked) [Example I-35] on F508delCFTR (Homo sapiens, UniProt P13569, DEL508-508) gives Emax = ≥ 150%

# CCOc1ccc2nc(S(=O)(=O)NC(=O)C3CCc4c(OC)cccc43)sc2c1 (centres unmarked) [III-53] with F508delCFTR (Homo sapiens, UniProt P13569, DEL508-508): Emax is < 50%

---

# assayed.system: F508delCFTR (Homo sapiens, UniProt P13569, DEL508-508)
# Construct: expressed in transfected cells; host or cells: CFBE41o- human lung-derived epithelial cells (CFBE41o-F508delCFTR-HRP), doxycycline-inducible
# experiment.notes: Cell Surface Expression-Horse Radish Peroxidase (CSE-HRP) assay, test compound with co-corrector;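 for Maximum % activity (with co-corrector): percent of 2 µM positive control corrector over DMSO; co-corrector is that same compound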
# Format: cell-based
# assay.setup: maximum at any tested concentration, normalized to positive control, with 2 μM co-corrector
# Method: Cell Surface Expression-Horse Radish Peroxidase (CSE-HRP) Assay […] The % activity measured at each of the 8 test concentrations of the test compound added either without or with a co-corrector (2 μM of 3-[(2R,4R)-4-({[1-(2,2-difluoro-1,3-benzodioxol-5-yl)cyclopropyl]carbonyl}amino)-7-methoxy-3,4-dihydro-2H-chromen-2-yl]benzoic acid) was normalized to the on-plate positive control using the following formulae: […]
readout: Maximum % activity (with co-corrector)

CCC1(C(=O)NS(=O)(=O)c2cccc3c2ccn3C)CCc2c(Cl)cccc21 (centres unmarked) | +++ (≥350)
COc1ccc(Br)c2c1CCCC2C(=O)NS(=O)(=O)c1cccc2ccccc12 (centres unmarked) | +++ (≥350)
COc1ccc(OC)c2c1CCCC2C(=O)NS(=O)(=O)c1cccc2ccccc12 (centres unmarked) | +++ (≥350)
Cc1ccccc1S(=O)(=O)NC(=O)[C@@]1(C)CCc2ccc(Cl)cc21 | ++ (≥150 and <350)
COc1ccc2c(c1)[C@@](C)(C(=O)NS(=O)(=O)c1cccc3ccccc13)CC2 | +++ (≥350)
COc1ccc(C(F)(F)F)c2c1[C@H](C(=O)NS(=O)(=O)c1cccc3nc(C)ccc13)CC2 | +++ (≥350)
O=C(NS(=O)(=O)c1cccc2ccccc12)C1(Cc2ccc(Cl)nc2)CCc2c(Cl)cccc21 (centres unmarked) | +++ (≥350)

Reported Maximum % activity (with co-corrector) of Cc1ccccc1S(=O)(=O)NC(=O)C1CCCc2cc(F)ccc21 (centres unmarked) : ++ (≥150 and <350)

---

# assayed.system: F508delCFTR (Homo sapiens, UniProt P13569, DEL508-508)
# Construct: expressed in transfected cells; host or cells: CFBE41o- human lung-derived epithelial cells (CFBE41o-F508delCFTR-HRP), doxycycline-inducible
# experiment.notes: Cell Surface Expression-Horse Radish Peroxidase (CSE-HRP) assay, test compound without co-corrector
# Type: cell-based
# assay.setup: CSE-HRP assay, test compound without co-corrector
# Procedure: Cell Surface Expression-Horse Radish Peroxidase (CSE-HRP) Assay […] The % activity measured at each of the 8 test concentrations of the test compound added either without or with a co-corrector (2 μM of 3-[(2R,4R)-4-({[1-(2,2-difluoro-1,3-benzodioxol-5-yl)cyclopropyl]carbonyl}amino)-7-methoxy-3,4-dihydro-2H-chromen-2-yl]benzoic acid) was normalized to the on-plate positive control using the following formulae: […]
pEC50: −log10 of the molar value.
readout: pEC50

Answered cases to consult:
COc1ccc(-c2ccncc2)c2c1C(C(=O)NS(=O)(=O)c1cccc3ccccc13)CCC2 (centres unmarked) | > 5.52
Cc1ccccc1S(=O)(=O)NC(=O)C1CCc2c(-c3ccncc3F)cccc21 (centres unmarked) | ≤ 5.00
CCC1(C(=O)NS(=O)(=O)c2cccc(Cl)c2C)CCc2c(Cl)cccc21 (centres unmarked) | 5.00 to 5.52
COc1cccc2c1CCC[C@H]2C(=O)NS(=O)(=O)c1cccc(N)n1 | ≤ 5.00

Given item COc1ccc2c(c1OC)CC2C(=O)NS(=O)(=O)c1cccc2ccccc12 (centres unmarked) , the value recorded as its pEC50 is ≤ 5.00

---

# assayed.system: F508delCFTR (Homo sapiens, UniProt P13569, DEL508-508)
# Construct: expressed in transfected cells; host or cells: CFBE41o- human lung-derived epithelial cells (CFBE41o-F508delCFTR-HRP), doxycycline-inducible
# experiment.notes: Cell Surface Expression-Horse Radish Peroxidase (CSE-HRP) assay, test compound with co-corrector
# Type: cell-based
# assay.setup: with 2 μM co-corrector
Recorded EC50 for the following molecules

COc1ccc(Br)c2c1C(C(=O)NS(=O)(=O)c1cccc3c(O)cccc13)CC2 (stereo not drawn) | < 3 µM
COc1cccc2c1CCC2C(=O)NS(=O)(=O)c1cncc(Br)c1 (stereo not drawn) | ≥ 10 µM

Lab note: molecule COc1ccc(Br)c2c1CCCC2C(=O)NS(=O)(=O)c1cccc2ccccc12 (stereo not drawn) tested on F508delCFTR (Homo sapiens, UniProt P13569, DEL508-508); recorded EC50 was < 3 µM

Query `COc1cccc2c1CCC[C@H]2C(=O)NS(=O)(=O)c1cccc2ccccc12` on F508delCFTR (Homo sapiens, UniProt P13569, DEL508-508); EC50 returned: 3 to 10 µM

# lookup: COc1cccc2c1CCC2C(=O)NS(=O)(=O)c1ccc(F)cc1F (stereo not drawn) on F508delCFTR (Homo sapiens, UniProt P13569, DEL508-508), EC50 = ≥ 10 µM

---

# assayed.system: F508delCFTR (Homo sapiens, UniProt P13569, DEL508-508)
# Construct: expressed in transfected cells; host or cells: CFBE41o- human lung-derived epithelial cells (CFBE41o-F508delCFTR-HRP), doxycycline-inducible
# experiment.notes: Cell Surface Expression-Horse Radish Peroxidase (CSE-HRP) assay, test compound without co-corrector
# Type: cell-based
# assay.setup: test compound without co-corrector
readout: EC50

Example entries begin here.
COc1ccc(/C=C/c2ccccc2)c2c1CCCC2C(=O)NS(=O)(=O)c1cccc2ccccc12 (stereo not drawn) [II-96] | < 3 µM
COc1ccc(-c2cccc3c2CCC3C(=O)NS(=O)(=O)c2ccccc2C)cn1 (stereo not drawn) [III-85] | ≥ 10 µM
COc1ccc2c(c1)CC[C@]2(C)C(=O)NS(=O)(=O)c1cccc2ccccc12 [II-45] | 3 to 10 µM
COc1cccc2c1CCC2C(=O)NS(=O)(=O)c1cncc(Br)c1 (stereo not drawn) [III-65] | ≥ 10 µM
Cc1ccccc1S(=O)(=O)NC(=O)[C@H]1CCCc2ccccc21 [II-14] | 3 to 10 µM

For record CCCS(=O)(=O)NC(=O)C1CCc2c(OC)cccc21 (stereo not drawn) [III-17] the listed EC50 is ≥ 10 µM

response.value for COc1cccc2c1CCC[C@H]2C(=O)NS(=O)(=O)c1cccc2ccccc12 [Example I-3] (field: EC50) = 3 to 10 µM

Field EC50 (entry COc1cccc2c1CCC2C(=O)NS(=O)(=O)c1c(CO)c(C)nn1C (stereo not drawn) [III-69] ) reads ≥ 10 µM

Documented EC50 of COc1ccc(Br)c2c1[C@H](C(=O)NS(=O)(=O)c1cccc3ncccc13)CCC2 (single isomer, unassigned) [Example I-63] : < 3 µM

Item: Cc1ccccc1S(=O)(=O)NC(=O)C1CCc2c(-c3ccc(N4CCCCC4)nc3)cccc21 (stereo not drawn) [III-86] | EC50: 3 to 10 µM

Per the records, this compound ( COc1ccc(C2=CCOCC2)c2c1C(C(=O)NS(=O)(=O)c1cccc3ccccc13)CCC2 (stereo not drawn) [II-121] ) has EC50 equal to 3 to 10 µM

Briefly, EC50 measured for Cc1nn(C)c(C)c1S(=O)(=O)NC(=O)C1CCc2c(Cl)cccc21 (stereo not drawn) [III-4] : ≥ 10 µM

Given item CC1(C(=O)NS(=O)(=O)Cc2ccccc2)CCc2c(Cl)cccc21 (stereo not drawn) [III-3] , the value recorded as its EC50 is ≥ 10 µM

Short answer for COc1ccc(OC)c2c1CC[C@H]2C(=O)NS(=O)(=O)c1cccc2ncccc12 [Example I-92] : EC50 was 3 to 10 µM

The reported value for COc1ccc(Br)c2c1[C@@H](C(=O)NS(=O)(=O)c1cccc3ccccc13)CC2 [Example I-51] in terms of EC50 is 3 to 10 µM

// EC50 lookup, compound = CC1(C(=O)NS(=O)(=O)c2cccc3ccccc23)CCc2cccc(C3CCC3)c21 (stereo not drawn) [Example I-83] , result: < 3 µM

Value of measured EC50 for the entry COc1cccc2c1CCC2C(=O)NS(=O)(=O)c1c(C)nn(C)c1Cl (stereo not drawn) [III-44] : ≥ 10 µM

For this compound ( COc1ccc(CC(C)C)c2c1CCCC2C(=O)NS(=O)(=O)c1cccc2ccccc12 (stereo not drawn) [Example I-67] ), measured EC50 is < 3 µM

// provenance: patent US20180244611A1
